assay_method_text: duplex melting temperature (HRM, EvaGreen); higher = more stable duplex
particulars: duplex concentration 2.5 µM; backbone: PO-PO (both strands phosphodiester DNA)
Threshold rule: duplex melting temperature greater than or equal to 70 °C is true; below that, false.

Field: example entries. Status: answers known.
primary_sequence=TACTTCCAACGTAGG assigned_class=false
primary_sequence=GCCCGAGCATGACTGCG assigned_class=true
primary_sequence=GCGGTTGGTGGCCAAC assigned_class=true
primary_sequence=GGTGGCGTTCTT assigned_class=false
primary_sequence=TAGACGCGGCCTCTTTCC assigned_class=true

Check the entry CTAAACTGTTATAGCCGG : does duplex melting temperature equal or exceed 70 °C?
false

Try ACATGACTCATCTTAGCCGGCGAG next.
true

Try AATGTCGAACAGCAATT next.
false

Try GCAGGAGCCGCGACCTG next.
true

Try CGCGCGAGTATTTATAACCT next.
true

Try ATAACTTACTCTCGCCT next.
false

Try GATGCCGCAGCGACCTG next.
true

Try CTACCAGCGGCGCCGTT next.
true

Try GTCATTGTGCTTTTGC next.
false

Try TTAACCTGCAATGGATC next.
false
